Molecular target: Neuropeptide Y receptor type 2 (Homo sapiens, UniProt P49146)
Sequence (P49146 whole entry): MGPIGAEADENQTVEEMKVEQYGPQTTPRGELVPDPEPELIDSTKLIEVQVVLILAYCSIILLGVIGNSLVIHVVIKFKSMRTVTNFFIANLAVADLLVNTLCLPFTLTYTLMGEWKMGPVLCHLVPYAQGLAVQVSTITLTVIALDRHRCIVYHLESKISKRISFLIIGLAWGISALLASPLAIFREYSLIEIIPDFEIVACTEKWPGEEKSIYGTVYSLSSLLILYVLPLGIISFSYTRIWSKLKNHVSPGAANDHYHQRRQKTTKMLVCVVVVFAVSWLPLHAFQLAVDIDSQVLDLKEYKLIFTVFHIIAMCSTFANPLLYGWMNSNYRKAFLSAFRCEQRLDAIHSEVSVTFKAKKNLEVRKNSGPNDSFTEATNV
Assay: Displacement of [125I]-PYY from human NPYY2 receptor
Entries and their pIC50 values follow.
Quick note: pIC50 means taking -log10 of the concentration in moles per liter.

Exercise: Quick one: pIC50 of CCC(CC)C(=O)Nc1ccc(N2CCN(C(C(=O)N(CC)CC)c3ccc(O)cc3)CC2)c(F)c1 (centres undefined) ?
Key: 7.00

Exercise: Same read-out for CCC(CC)C(=O)Nc1ccc(N2CCN(C(c3ccccc3)c3cc(C)no3)CC2)c(F)c1 (centres undefined) ?
Key: 7.42

Exercise: And for CC(=O)N1CCc2ccc(N(CC#Cc3ccccc3)C3CCN(Cc4ccccc4)CC3)cc21 ?
Key: 5.04
